From: PubChem BioAssay (NCI)

tested on: 786-0 renal; test: NCI tumour cell line growth inhibition, 48 h
Quick reference for TGI among some molecules
Quantity Kind: TGI

Cc1nc(Nc2nc3ccccc3o2)nc(-c2cccc([N+](=O)[O-])c2)c1C(=O)Nc1ccc(F)c(Cl)c1	> 100 µM
Cc1ccc(NC(=O)C(=O)Cc2cc[n+]([O-])cc2)cc1	> 100 µM
Cn1c(=O)c(Oc2ccc(F)cc2F)cc2cnc(NCCS(C)(=O)=O)nc21	> 25 µM
COc1ccc(N=[N+]([O-])c2ccc(OC)cc2)cc1	> 100 µM
OC(C/C=N/Nc1ccccc1)(C(F)(F)Cl)C(F)(F)Cl	> 10 µM

* * *

Quick reference for TGI among some compounds
tested on: HOP-18 NSCLC; assay: NCI tumour cell line growth inhibition, 48 h
Quantity Kind: TGI

O=C(O)CCSC(=O)Nc1ccc(N=Nc2ccccc2)cc1	> 100 µM
CCOC(=O)C1=C(Nc2ccc(Cl)c(Cl)c2)OC/C1=N\NS(=O)(=O)c1ccc(C)cc1	> 100 µM
O=C(CCN1CCOCC1)C(=Cc1ccccc1)C(=O)CCN1CCOCC1	30.6 µM
CCC(=O)N/N=C(\C=C\c1cccc(O)c1)c1sc(Nc2ccc(C)cc2[N+](=O)[O-])nc1C	> 100 µM
COc1ccc(CCNCCCC2c3ccccc3-c3ccccc32)cc1OC	30.6 µM
CN1CC(=O)N(C)c2nc[nH]c2C1=O	> 100 µM
CC12Oc3ccc4ccccc4c3CC1Cc1c(ccc3ccccc13)O2 (centres undefined)	98.7 µM
O=C1C2Nc3ccccc3SC2C(=O)N1c1ccccc1C(F)(F)F (centres undefined)	> 100 µM
COC(=O)C1=C(c2ccc3c(c2)OCO3)OC(c2cc(OC)c(OC)c(OC)c2)C1 (centres undefined)	> 100 µM
Nn1c(N=Nc2c(O)[nH]c3c(Cl)cc(Cl)cc23)n[nH]c1=S	> 100 µM
O=C(O)/C=C/C(=O)N1C/C(=C\c2ccccc2)C(=O)/C(=C/c2ccccc2)C1	26.3 µM
COC1=C2CC(C)CC(OC)C(O)C(C)/C=C(\C)C(OC(N)=O)C(OC)/C=C\C=C(/C)C(=O)NC(=C(/C=N/N3CCCCC3)C1=O)C2=O (centres undefined)	27.2 µM
Cc1cccc(C(C)(C)C)c1NC(=O)CC1Sc2ccccc2NC1=O (centres undefined)	> 100 µM
COC(=O)c1ccc(NCc2cc(O)ccc2O)cc1	27.4 µM
O=C(O)C1=C(C(=O)Nc2ccc(NC(=O)C3=C(C(=O)O)C4C=CC3C4)cc2)C2C=CC1C2	> 100 µM
CC1(C)OC(=O)C=C([O-])O1.CC1(C)OC(=O)C=C([O-])O1.CC[O-].CC[O-].[Ti+4]	> 100 µM
COC1OC2COC(c3ccccc3)OC2C(O)C1Br (centres undefined)	> 100 µM
NCc1cc(O)c(O)c(O)c1	> 100 µM
CC1=CC(=O)N(c2c(C)cccc2Cl)C(C)N1 (centres undefined)	> 100 µM

* * *

Listed here: molecules with reported GI50 for PC-3 prostate.
Quantity Kind: GI50

Clc1nc(Cl)c2ncn(Cc3ccc(Cn4cnc5c(Cl)nc(Cl)nc54)cc3)c2n1	1560 nM
CCCNc1nc2ccccc2c2c1S(=O)(=O)c1ccc(Cl)cc1C2=O	225 nM
COC(=O)[C@@H](C)C[C@H](Cc1ccccc1)NC(=O)c1csc([C@@H](C[C@H](C(C)C)N(C)C(=O)[C@H](C)NC(=O)[C@H]2CCCCN2C)OC(C)=O)n1	821 nM
C=CCCCc1ccc(C(O)CCCCCCCCCCCC)o1 (stereo unspecified)	19800 nM
COc1cc(/C=C/C(=O)c2cccnc2Nc2ccc(F)cc2)cc(OC)c1OC	3950 nM
Cc1c(Sc2ccccc2)[n+](=O)c2cc(Cl)c(Cl)cc2n1[O-]	> 100000 nM

* * *

Quick reference for TGI among some compounds
tested on: NCI-H23 lung; test: NCI tumour cell line growth inhibition, 48 h
Quantity Kind: TGI (µM)

COc1ccc(CCNCCCC2c3ccccc3-c3ccccc32)cc1OC	28.9
O=C1OC(OCC#CCOC2OC(=O)C(Cl)=C2Cl)C(Cl)=C1Cl (configuration not stated)	40.9
Cc1cccc2c(N)c3ccccc3nc12	7.49
O=C(N/N=C\C(F)(F)F)c1ccncc1	50.6
Cc1ccccc1N=NC(C(=O)c1ccccc1)C(=O)c1ccccc1	55.2

* * *

test system: SF-295 CNS; assay: NCI tumour cell line growth inhibition, 48 h
Quantity Kind: TGI

O=C(/C=C1/Nc2ccc([N+](=O)[O-])cc2NC1O)c1cccc([N+](=O)[O-])c1 (stereo not given)	38.3 µM
O=C1NC2(CCN(CCCC3(c4ccc(F)cc4)OCCO3)CC2)Oc2ccccc21	> 100 µM
COc1ccc(-c2nn(-c3cccc(NC(=O)c4ccc(N5CCOCC5)c(C(F)(F)F)c4)c3)cc2-c2ccncc2)cc1Cl	> 50 µM
[Cl][Cd][Cl]	155 µM
CC(C)(C)C1CCC2c3c([nH]c4ccccc34)C3C(=O)N(c4ccc5c(c4)C(=O)c4ccccc4C5=O)C(=O)C3C2C1 (stereo not given)	> 100 µM
COc1cc(C(=O)Oc2c(C#N)sc3c2c(=O)n(-c2ccccc2)c(=S)n3-c2ccccc2)cc(OC)c1OC	27.9 µM
O=C(NNC(=O)c1ccccc1O)c1ccc(O)cc1	> 100 µM
Cc1ccccc1-n1c(C)nc(-c2ccccc2)cc1=O	> 100 µM
NCCSCCc1ccccc1	> 100 µM
CC(C)c1cc(OCC(O)CO)cc(C(C)C)c1 (stereo not given)	> 100 µM

* * *

system: SK-MEL-2 melanoma; assay: NCI tumour cell line growth inhibition, 48 h
Quantity Kind: TGI

COc1ccc(CCNC(=O)[C@H]2CCCC[C@@H]2CCO)cc1OC	> 100 µM
CC(C)CCN[C@@H]1CCc2cc(O)c(N3CC(=O)NS3(=O)=O)c(F)c2C1	> 100 µM
Cn1cnc([N+](=O)[O-])c1Sc1ncn[nH]1	> 100 µM
Cc1nc(Nc2nc3ccccc3o2)nc(-c2cccc([N+](=O)[O-])c2)c1C(=O)Nc1ccc(F)c(Cl)c1	4.73 µM
CC(C)c1cc(OCC(O)CO)cc(C(C)C)c1 (configuration not stated)	> 100 µM
O=C1OC(CN2CCOCC2)CN1/N=C/c1ccc([N+](=O)[O-])o1 (configuration not stated)	> 100 µM
COc1ccc2c(c1OC)C(=O)c1cnccc1C2=O	> 100 µM
COc1ccc(NC2CC(C)N(C(=O)c3ccccc3)O2)cc1 (configuration not stated)	> 10 µM
CCc1cc2c(oc3cc(C)ccc32)c(=O)n1C	> 10 µM
O=C1c2ccccc2C(=O)c2oc(Br)cc21	1.73 µM
O=C(O)c1ccccc1NC(=O)C1CCCCC1	> 100 µM
CCOC(OC1=C(C#N)CCCC1)C(C)[Se]c1ccccc1 (configuration not stated)	> 100 µM

* * *

Quick reference for GI50 among some molecules
system: OVCAR-3 ovarian
Quantity Kind: GI50

Cc1nc(Nc2nc3ccccc3o2)nc(-c2cccc([N+](=O)[O-])c2)c1C(=O)Nc1ccc(F)c(Cl)c1	1.02 µM
c1ccc(CNc2nc(Nc3ccccc3)nc3ccccc23)cc1	1.77 µM
Cc1cc(OCc2nnc3n2N=C(c2ccc(Cl)cc2Cl)CS3)ccc1Cl	35.9 µM
CCN(CC)CCOc1ccc(C(=O)/C=C\c2ccc(Cl)cc2Cl)cc1	3.84 µM
COc1ccc(Nc2c3ccccc3nc3[nH]c4ccccc4c23)cc1	19.4 µM
Cn1cnc([N+](=O)[O-])c1Sc1ncn[nH]1	47.3 µM

* * *

system: SR leukemia; test: NCI tumour cell line growth inhibition, 48 h
Quantity Kind: TGI

CC(CCCOC(c1ccccc1)(c1ccccc1)c1ccccc1)OC(=O)Nc1ccccc1 (stereo not drawn)	44.7 µM
c1ccc(CNc2nc(Nc3ccccc3)nc3ccccc23)cc1	6.07 µM
CN1C(Cl)=NS(=O)(=O)c2ccccc21	> 100 µM
O=C(NO)c1ccc(O)c(O)c1	> 100 µM
CCOP(=O)(OCC)/C(C#N)=C/c1ccnc2ccccc12	73.6 µM
CC(=O)OCC(Br)C1(C)CCC(C(C)(C)Br)O1 (stereo not drawn)	> 100 µM
COc1cccc(-c2nc(-c3cnccn3)n(COCCO)n2)c1	> 100 µM
COc1ccc(NC2CC(C)N(C(=O)c3ccccc3)O2)cc1 (stereo not drawn)	> 10 µM

* * *

Quick reference for TGI among some compounds
test system: HCT-116 colon; test: NCI tumour cell line growth inhibition, 48 h
Quantity Kind: TGI

CCCNc1nc2ccccc2c2c1S(=O)(=O)c1ccc(Cl)cc1C2=O	> 50 µM
CC(C)(C)S(=O)OC12CC3CC(CC(C3)C1)C2 (stereo unspecified)	> 100 µM
CC(Br)C(=O)Nc1ccc(C(=O)O)c(O)c1 (stereo unspecified)	> 100 µM
O=[N+]([O-])c1cccc(C2=NOC3C4CCC(C4)C23)c1 (stereo unspecified)	> 100 µM
O=C1OC(OCC#CCOC2OC(=O)C(Cl)=C2Cl)C(Cl)=C1Cl (stereo unspecified)	21.8 µM
O=C(O)c1ccccc1NC(=O)C1CCCCC1	> 100 µM
N#Cc1c(N2CCOCC2)[nH]c(=O)c(C(c2c(Cl)cccc2Cl)c2c(O)c(C#N)c(N3CCOCC3)[nH]c2=O)c1O	> 100 µM
COc1ccc(N=[N+]([O-])c2ccc(OC)cc2)cc1	> 100 µM
CN(/N=N/c1nc(OCc2ccccc2)c2[nH]cnc2n1)C(=O)Oc1ccc([N+](=O)[O-])cc1	16 µM
Cc1cccc2c(=O)c3cccc([C@@H](C)C(=O)O)c3oc12	> 100 µM
CCC1CN2CCC3(c4ccccc4)CC(C(=O)OC)=CC1C23 (stereo unspecified)	29.4 µM
